pIC50: −log10 of the molar value.
Consider the following pIC50 values measured on Apoptosis regulator Bcl-2 (Homo sapiens, UniProt P10415).
Sequence (P10415 whole entry): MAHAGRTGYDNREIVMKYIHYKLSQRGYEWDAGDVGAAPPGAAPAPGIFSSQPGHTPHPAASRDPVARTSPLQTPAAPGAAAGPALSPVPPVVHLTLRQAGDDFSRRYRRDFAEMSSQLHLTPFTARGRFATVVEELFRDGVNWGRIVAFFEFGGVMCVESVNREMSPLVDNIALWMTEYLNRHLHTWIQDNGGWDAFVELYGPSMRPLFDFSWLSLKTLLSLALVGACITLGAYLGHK
Parameter Measured: pIC50

N#CC1=C(NCCN2CCOCC2)c2ccc(SC3CCCCC3)c3cccc(c23)C1=O : 4.73
N#CC1=C(NCCO)c2ccc(SC3CCCCC3)c3cccc(c23)C1=O : 5.02
N#CC1=C(C#N)c2ccc(Sc3ccccc3)c3cccc(c23)C1=O : 5.74
N#CC1=C(NCc2ccccc2)c2ccc(SC3CCCCC3)c3cccc(c23)C1=O : 5.28

====

- Experiment Summary: Binding affinity to human Hsp70 NBD (1 to 383) assessed as dissociation constant measured by isothermal titration calorimetry assay
Parameter Measured: Kd (nM)

N#CC1=C(NCCN2CCOCC2)c2ccc(SC3CCCCC3)c3cccc(c23)C1=O : 960
